Molecular target: Anti-CD28 Fab (SEQ ID NOs: 696, 697)
Sequence (VH, as listed by the source, chain 1 of 2): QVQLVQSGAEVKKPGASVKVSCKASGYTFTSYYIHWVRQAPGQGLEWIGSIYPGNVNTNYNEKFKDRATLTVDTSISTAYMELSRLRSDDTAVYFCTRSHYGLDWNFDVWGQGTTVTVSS
Sequence (VL, as listed by the source, chain 2 of 2): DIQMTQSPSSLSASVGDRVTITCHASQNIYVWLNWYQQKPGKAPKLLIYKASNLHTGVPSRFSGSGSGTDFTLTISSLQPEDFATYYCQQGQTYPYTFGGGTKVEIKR
Assay: phage binding ELISA; captured anti-CD28 Fab pre-incubated with CD28 antigen as competitor, anti-M13 HRP
Label scheme for Anti-CD28 Fab signal in the presence of CD28: lower than 0.08 is NOT MET, 0.08 and above is MET.

YCQGHLPIYMEKCL [Phage-583] ... MET
YCEGHAWEYMAKCL [Phage-580] ... NOT MET
YCEGHSPEYMYKCL [Phage-589] ... MET
YCDGHLPQYMNKCL [Phage-585] ... MET
YCEGHLPMYMDKCL [Phage-591] ... NOT MET

Ask: Check the entry YCDGHSMEYMSKCL [Phage-590] : does Anti-CD28 Fab signal in the presence of CD28 equal or exceed 0.08?
Reply: MET

Ask: Check the entry YCAGHLPEYMEKCL [Phage-579] : does Anti-CD28 Fab signal in the presence of CD28 equal or exceed 0.08?
Reply: MET

Ask: Check the entry YCDGHSAEYMAKCL [Phage-588] : does Anti-CD28 Fab signal in the presence of CD28 equal or exceed 0.08?
Reply: NOT MET

Ask: Check the entry YCDGHLPLYLAKCL [Phage-584] : does Anti-CD28 Fab signal in the presence of CD28 equal or exceed 0.08?
Reply: MET
